- Assay System: T1, human PAR-2 (human, UniProt P55085 26-397)
- T1 sequence: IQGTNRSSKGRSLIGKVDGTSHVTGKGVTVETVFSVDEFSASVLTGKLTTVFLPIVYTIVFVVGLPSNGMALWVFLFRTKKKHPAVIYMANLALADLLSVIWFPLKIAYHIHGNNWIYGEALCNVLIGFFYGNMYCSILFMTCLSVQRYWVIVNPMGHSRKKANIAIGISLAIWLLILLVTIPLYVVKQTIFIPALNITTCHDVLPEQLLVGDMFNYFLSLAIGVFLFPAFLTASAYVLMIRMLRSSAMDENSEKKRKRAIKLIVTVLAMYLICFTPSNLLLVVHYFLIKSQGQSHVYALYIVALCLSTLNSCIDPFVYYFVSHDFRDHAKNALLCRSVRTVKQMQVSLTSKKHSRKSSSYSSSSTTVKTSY
- Method Notes: cell-based or functional assay
Result Type: PAR-2 β-arrestin cell based assay IC50, 2 µM SLIGKV (nM)
Note: unit nM is implicit; provide only the numeric part.

- Binder: "P24E923 (antibody, human IgG4 S228P, kappa, V domains shown) VH: QVQLVQSGAEVKKPGSSVKVSCKASGFSLSSYAISWVRQAPGQGLEWMGVIWGNGNTYYAQKFQGRVTITADESTSTAYMELSSLRSEDTAVYYCARWRGWKDYPFDYWGQGTLVTVSS VL: EIVLTQSPATLSLSPGERATLSCKASQNVYKWLDWYQQKPGQAPRLLIYNAYSLATGIPARFSGSGSGRDFTLTISSLEPEDFAVYYCQQHNSGWTFGGGTKVEIKR"
  Data Value: 0.99
- Binder: "P24E298 (antibody, human IgG4 S228P, kappa, V domains shown) VH: QVQLVQSGAEVKKPGSSVKVSCKASGFSLSSYAISWVRQAPGQGLEWMGVIWGNGNTYYAQKFQGRVTITADESTSTAYMELSSLRSEDTAVYYCARWRGYKDYPFDYWGQGTLVTVSS VL: EIVLTQSPATLSLSPGERATLSCKASQNIYKWLDWYQQKPGQAPRLLIYNTNSLATGIPARFSGSGSGRDFTLTISSLEPEDFAVYYCLQHNSGWTFGGGTKVEIKR"
  Data Value: 1.47
- Binder: "P24E297 (antibody, human IgG4 S228P, kappa, V domains shown) VH: QVQLVQSGAEVKKPGSSVKVSCKASGFSLNSYAISWVRQAPGQGLEWMGVIWGNGNTYYAQKFQGRVTITADESTSTAYMELSSLRSEDTAVYYCARWRGYKDYPFDYWGQGTLVTVSS VL: EIVLTQSPATLSLSPGERATLSCKASQNIYKYLDWYQQKPGQAPRLLIYNTNSRATGIPARFSGSGSGRDFTLTISSLEPEDFAVYYCLQHNSGWTFGGGTKVEIKR"
  Data Value: 3
- Binder: "P24E743 (antibody, human IgG4 S228P, kappa, V domains shown) VH: QVQLVQSGAEVKKPGSSVKVSCKASGFSLSSYAISWVRQAPGQGLEWMGVIWGNGNTYYAQKFQGRVTITADESTSTAYMELSSLRSEDTAVYYCARWRGYKDYPFDYWGQGTLVTVSS VL: EIVLTQSPATLSLSPGERATLSCKASQNVYKWLDWYQQKPGQAPRLLIYNAYSLATGIPARFSGSGSGRDFTLTISSLEPEDFAVYYCQQHGSGWTFGGGTKVEIKR"
  Data Value: 1.51

Turning now to a further binder:
Request: May I ask what PAR-2 β-arrestin cell based assay IC50, 2 µM SLIGKV has been recorded for P24E282 (antibody, human IgG4 S228P, kappa, V domains shown) VH: QVQLVQSGAEVKKPGSSVKVSCKASGFSLSSYGVIWVRQAPGQGLEWMGVIWGNGNTYYAQKFQGRVTITADESTSTAYMELSSLRSEDTAVYYCARWRGYKDYPFDYWGQGTLVTVSS VL: EIVLTQSPATLSLSPGERATLSCKASQNIYKYLDWYQQKPGQAPRLLIYNTNSRATGIPARFSGSGSGRDFTLTISSLEPEDFAVYYCLQHNSGWTFGGGTKVEIKR ?
Response: 2

Where do these numbers come from? They come from patent US20220056125A1.
